tested_on: T1, GST-hUHRF1-TTD (126-280) D142E (human, UniProt Q96T88 126-280, D142E)
T1 construct: Tandem Tudor domain (TTD) of human UHRF1, UniProt Q96T88, residues 126-280; source: E. coli, purified (Glutathione Agarose 4B); not shown: GST, N-terminal, kept
T1 sequence (looked up): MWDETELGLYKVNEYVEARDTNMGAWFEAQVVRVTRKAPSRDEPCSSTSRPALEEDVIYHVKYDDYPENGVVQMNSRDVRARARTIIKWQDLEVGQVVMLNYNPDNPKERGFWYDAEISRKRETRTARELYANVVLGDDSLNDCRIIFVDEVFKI
measurement_notes: fluorescence polarisation; fluorescence anisotropy titration; 100 nM FITC-labeled peptide in the cuvette, protein added stepwise; 23°C; 100 mM KCl, 20 mM HEPES pH 7.5, 10% v/v glycerol
condition_info: both partners purified
No end group written: not given here. Me3 = trimethyl (trimethyl-lysine)
observable: Kd
In your response, put the unit directly after the numeric value.

stdin: Any idea what its Kd is? The binder is ARTK(Me)QTARK(Me3)STGGKAPRKQ (peptide, UniProt P68431 2-20, looked up, also: FITC-labeled (position not given here), histone H3 N-terminal tail, residues 1-19; also called H3K4me1-K9me3; H3 K4me1-K9me3) [FITC-labeled H3(1-19) peptide with K4me1 and K9me3]
stdout: 580 nM
